# TESTED_TARGET: Macaca fascicularis PRLR (mfPRLR.mmh; SEQ ID NO:403)
# Sequence (as listed by the source): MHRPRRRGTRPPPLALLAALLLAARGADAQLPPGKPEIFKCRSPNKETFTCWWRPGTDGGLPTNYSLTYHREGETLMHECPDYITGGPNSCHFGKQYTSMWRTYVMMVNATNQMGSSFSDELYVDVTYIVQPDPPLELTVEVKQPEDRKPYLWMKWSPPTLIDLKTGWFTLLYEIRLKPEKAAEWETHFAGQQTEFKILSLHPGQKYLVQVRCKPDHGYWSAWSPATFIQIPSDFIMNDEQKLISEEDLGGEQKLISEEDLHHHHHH
# METHOD: Surface plasmon resonance (Biacore T200), antibody-capture format
# Format: binding
# CONDITION_NOTES: 25° C., analyte mfPRLR.mmh
PROPERTY_NAME: kd (s⁻¹)
Return type: number; implicit unit s⁻¹.

molecule="H1H6960N: anti-PRLR antibody, human IgG1 Fc form of H2M6960N of Table 1; HCVR/LCVR SEQ ID NOs 322/330 (antibody, V domains shown, human IgG1 Fc) VH: EVQLVESGGGLVKPGGSLRLSCAASGITFSSYSMNWVRQAPGKGLEWVSSISTRSSLIHYADSVKGRFTISRDNAKNSLYLQMNSLRDEDTAVYYCARWDAAAAFDYWGQGTLVIVSS VL: DIQLTQSPSFLSASVGDRVTITCWASQGISSYLAWYQQKPGKAPKLLIYVASTLQSGVPSRFSGSGSGTEFTLTISSLQPEDFATYFCQQLNSYPLTFGGGTKVEIK" property_name=kd unit_spec=s⁻¹ readout_value=0.000583

## Input Recorded kd of H1H6976N: anti-PRLR antibody, human IgG1 Fc form of H2M6976N of Table 1; HCVR/LCVR SEQ ID NOs 386/394 (antibody, V domains shown, human IgG1 Fc) VH: EVQLLESGGGFVQPGGSLRLSCAASGFTFSSYAMSWVRQAPGKGLEWVSIISSNGRYTYYADSVKGRFTISRDNSKNTLYLQMNSLRAEDTAVYYCATVTGDWFDPWGQGTLVTVSS VL: DIQLTQSPSFLSASVGDRVTITCWASQDIDISLAWYQQKPGKAPKLLIYAASTLQSGVPSKFSGSGSGTDFTLTISSLQPEDFSTYYCQQLNSYPITFGQGTRLDIK , please.
## Output 0.000814
